- System: HT29 colon
- assay remarks: NCI-60 one-dose screen, 48 h
- recorded conditions: 10 µM unless noted
This is part of a sample that, as a whole, favours compounds with a hit. Of some 83,000 tested, about 20% had one in any assay. Active and inactive are the calls of the source. The calls were made as follows: active = growth percent below 10; inactive = the rest.
Select the correct class. Options are active, inactive and nothing else.

compound=NC(=S)N/N=C1\c2ccccc2-c2c(F)c(F)c(F)c(F)c21 assigned_category=inactive
compound=CC(C)OC1=C(Cl)C(=O)c2ccccc2C1=O assigned_category=inactive
compound=Cc1ccc(C)c2c1sc1nc3nc4sc5ccccc5n4c(=N)c3c(=O)n12 assigned_category=inactive
compound="COc1cc(C2=NN(c3ccc(S(N)(=O)=O)cc3)C(c3ccc(Cl)cc3)C2)cc(OC)c1OC (stereo unspecified)" assigned_category=inactive
compound=C=CC[P+](c1ccccc1)(c1ccccc1)c1ccccc1 assigned_category=inactive

Query :: Assay outcome for Cc1nc2cc(Nc3nc(N4CCCCC4)nc(N4CCOCC4)n3)ccc2n1Cc1ccccc1 : what was it?
Result :: active

Query :: Okay, and N#CCCN1CCN(CCC#N)C1=S ?
Result :: inactive

Query :: Cool, now N#Cc1ccc(C(F)(F)F)nc1N1CCC(C(=O)Nc2ccc(Cl)cc2)CC1
Result :: inactive

Query :: What do you get for Cn1c(=O)c(S(=O)(=O)c2ccccc2)cc2ccc3c(cnn3-c3ccc(Cl)cc3)c21 ?
Result :: inactive

Query :: How about this compound: COc1nc2c(cc1S(=O)(=O)c1ccccc1)CCc1c-2cnn1-c1ccccc1Cl
Result :: inactive
